Target: T1, GIP receptor (procedure of Example 3)
T1 sequence (P48546 whole entry, species assumed, looked up): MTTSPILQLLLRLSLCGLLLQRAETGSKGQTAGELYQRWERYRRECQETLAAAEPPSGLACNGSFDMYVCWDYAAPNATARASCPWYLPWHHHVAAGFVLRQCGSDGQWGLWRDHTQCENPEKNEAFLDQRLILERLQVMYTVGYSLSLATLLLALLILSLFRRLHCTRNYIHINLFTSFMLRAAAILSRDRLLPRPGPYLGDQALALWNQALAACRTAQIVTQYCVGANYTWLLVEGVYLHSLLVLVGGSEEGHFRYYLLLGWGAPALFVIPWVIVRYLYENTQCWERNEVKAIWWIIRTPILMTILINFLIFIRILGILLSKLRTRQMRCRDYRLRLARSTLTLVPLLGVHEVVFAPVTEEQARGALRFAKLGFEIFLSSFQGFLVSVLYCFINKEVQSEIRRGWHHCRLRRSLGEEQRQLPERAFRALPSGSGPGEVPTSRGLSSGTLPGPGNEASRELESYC
Assay: cell-based or functional assay
*1 amine or outer side, *2 acyl side, *3 side chain or, on linkers, in order; H or OH if unused. Where no end group is shown, it is not given here. Side-chain parts run from the residue outwards. [ ]: non-standard residue; d: D form. The star is where a group is joined. 40K‑TE PEG = 40 kDa PEG attached to Cys by thioether; γGlu = O=C(O)[C@H](CCC(=O)[*:2])N[*:1]; Palmitoyl = CCCCCCCCCCCCCCCC(=O)*; Morn = not defined here; Aib = CC(C)(N)C(=O)O
measuredQuantity: EC50 (nM) at GIP receptor (procedure of Example 3)
The answer is to be given in nM; state only the numeric part.

Given H[Aib]QGTFTSDK([γGlu-γGlu-Palmitoyl])SKYLD[Aib]RAAQDFVQWLMDTK[γGlu]-NH2 [peptide of SEQ ID NO: 12] , state its recorded EC50 (nM) at GIP receptor (procedure of Example 3).
12.8

Param item: HSQGTFTSDKSKYLDERAAQDFVQWLLDTKX (s at position 2 (lower case, presumably D-Ser); K(γGlu-C16) at position 10 (Lys acylated with C16 via γGlu spacer); C-terminal γGlu; C-terminal amide) [peptide of SEQ ID NO: 14]
976

Param item: H[Aib]QGTFTSDK([γGlu-γGlu-Palmitoyl])SKYLD[Aib]RAAQDFVQWL[Morn]DTKQ-OH (not fully specified; printed as HaibQGTFTSDK(γGlu-γGlu-C16)SKYLDaibRAAQDFVQWLMornDTKQ-acid; reading uncertain) [peptide of SEQ ID NO: 15]
1.9

Param item: H[Aib]QGTFTSDYSKYLDERRA[Aib]EFVC(40K‑TE PEG)WLLDTK[γGlu]-NH2 [peptide of SEQ ID NO: 13]
140
